I'd be grateful if you could share measured IC60, neutralizing activity (hMPV infection of LLC-MK2 cells; GraphPad Prism 6) for these entries.
target: F protein of human metapneumovirus strain JPS03-178 (type A2), on infectious virus (human metapneumovirus, strain JPS03-178 …); test: cell-based or functional assay
Provide the reading as a plain figure in µg/mL.

Query: Request the reported IC60, neutralizing activity (hMPV infection of LLC-MK2 cells; GraphPad Prism 6) associated with EV046147 (antibody, human IgG1, lambda, V domains shown) VH: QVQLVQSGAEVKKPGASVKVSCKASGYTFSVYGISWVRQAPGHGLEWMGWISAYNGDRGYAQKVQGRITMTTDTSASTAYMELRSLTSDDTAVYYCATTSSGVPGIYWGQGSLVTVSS VL: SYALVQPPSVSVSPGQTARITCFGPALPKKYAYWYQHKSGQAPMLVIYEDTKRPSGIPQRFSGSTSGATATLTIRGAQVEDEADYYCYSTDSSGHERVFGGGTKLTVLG
Result: 2.06

Query: And then EV046116 (antibody, human IgG1, kappa, V domains shown) VH: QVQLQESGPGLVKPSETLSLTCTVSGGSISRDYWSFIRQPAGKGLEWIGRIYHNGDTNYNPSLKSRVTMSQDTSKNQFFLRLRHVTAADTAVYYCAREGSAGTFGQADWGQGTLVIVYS VL: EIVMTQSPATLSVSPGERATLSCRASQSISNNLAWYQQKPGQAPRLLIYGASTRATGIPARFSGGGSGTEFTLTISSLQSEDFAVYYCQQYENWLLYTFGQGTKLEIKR , what is it?
Result: 0.247
